Test system: SNB-75
experiment description: NCI tumour cell line growth inhibition, 48 h
The source made the active and inactive calls. Cut-off read from the data, not from the text of the source: active = GI50 up to about 1.1 µM and inactive = higher.
endpoint: GI50

CC1OC1C(=O)P(=O)(O)O (stereo not given)	57.9 µM (inactive)
O=C1Nc2c(Cl)cc(Cl)cc2/C1=N/NC(=O)c1ccccc1O	9.77 µM (inactive)
O=C(O)C(=C\c1ccc2c(c1)OCO2)/C(=C/c1ccc2c(c1)OCO2)C(=O)O	> 100 µM (inactive)
COC(=O)/C=C\COCC1C2CCC(=O)C21 (stereo not given)	> 25 µM (inactive)
CC(C)(C)[C@H]1NC(=O)CN1C(=O)OCc1ccccc1	> 100 µM (inactive)
Nc1ccc2cc(S(=O)(=O)O)cc(O)c2c1/N=N/c1ccc(NC(=O)Nc2ccc(/N=N/c3c(N)ccc4cc(S(=O)(=O)O)cc(O)c34)c(S(=O)(=O)O)c2)cc1S(=O)(=O)O	95.9 µM (inactive)
O=c1oc(-c2ccccc2)cn1-c1ccccc1	> 100 µM (inactive)
Cc1ccc(OCC2OC(n3cnc4c(Br)nc(Br)nc43)CC2Oc2ccc(C)cc2)cc1 (stereo not given)	3.09 µM (inactive)
O=C(c1nc2ccc([N+](=O)[O-])cc2nc1O)C(O)c1ccc2c(c1)OCO2 (stereo not given)	> 100 µM (inactive)
Cc1ccccc1NC(=O)CSc1nnc(Cc2ccccc2)o1	> 100 µM (inactive)
